Measured CC50 at 48 h values are reported for all entries that follow.
Assay: Cytotoxicity against mouse RAW264.7 cells incubated for 48 hrs by CCK-8 assay
Type: toxicity, cell-based
Reply with just the number (in µM).

// solved cases for CC50 at 48 h follow
{"columns": ["Mol smiles", "Unit abbrev", "CC50 at 48 h"],
 "data": [
  ["O=C(Nc1nccs1)c1cccc(F)c1C(=O)O", "µM", 930],
  ["O=C(O)c1cc(Cl)ccc1C(=O)Nc1nc2ccccc2s1", "µM", 1330],
  ["Cc1ccc(C(=O)Nc2nccs2)c(C(=O)O)c1", "µM", 46.9],
  ["Cc1csc(NC(=O)c2ccccc2C(=O)O)n1", "µM", 212]
]}

Value of CC50 at 48 h reported for the compound `COC(=O)c1ccccc1C(=O)Nc1nccs1` is 498

Value of CC50 at 48 h reported for the compound `O=C(O)c1ccccc1C(=O)Nc1nccs1` is 178

Value of CC50 at 48 h reported for the compound `O=C(O)c1cc2ccccc2cc1C(=O)Nc1nccs1` is 490

Value of CC50 at 48 h reported for the compound `O=C(O)c1cc2ccccc2cc1C(=O)Nc1nc2ccccc2s1` is 65.5

Value of CC50 at 48 h reported for the compound `CCOC(=O)c1sc(NC(=O)c2cc3ccccc3cc2C(=O)O)nc1C` is 506

###

System: C3H 10T1/2
Assay: Anabolic activity in mouse C3H 10T1/2 cells by measuring fold change in osteoblast differentiation at 10 uM incubated for 7 days by ALP staining based analysis
Type: functional
Settings: time 7 day
Experimental endpoint: fold change (FC)

{"columns": ["Compound", "fold change (FC)"],
 "data": [
  ["O=C(O)C1OC(Oc2cc3oc(-c4ccc(O)cc4)cc(=O)c3c(O)c2O)C(O)C(O)C1O (stereo not given)", "<2"],
  ["O=C(O)c1ccc(N2C(=O)CSC2=S)cc1", 7.5],
  ["O=C(O)c1ccccc1C(=O)Nc1nccs1", 11.4],
  ["Cn1ncc2c(Nc3ccc(C(=O)O)cc3)ncnc21", 3.2],
  ["O=C(O)c1ccccc1SCc1cc(O)nc(O)n1", 8.2]
]}

Query `Nc1cccc(-c2cc(C(=O)O)c3ccccc3n2)c1` on C3H 10T1/2; fold change (FC) returned: <2

Query `CN1C(=O)[C@@H](/N=N/c2ccccc2C(=O)O)N(C)C1=S` on C3H 10T1/2; fold change (FC) returned: 3.9

Query `CC(C)(C)c1ccc(-c2cc(C(=O)O)c3ccccc3n2)cc1` on C3H 10T1/2; fold change (FC) returned: <2

Query Cc1cccc(C)c1NC(=O)c1ccccc1C(=O)O [FTAXILIDE] on C3H 10T1/2; fold change (FC) returned: 6

Query `Cc1ccc2nc(-c3ccc(Cl)cc3)cc(C(=O)O)c2c1` on C3H 10T1/2; fold change (FC) returned: 2.4

###

Assay: Cytotoxicity against mouse RAW264.7 cells incubated for 48 hrs by CCK-8 assay
Assay type: toxicity, cell-based
Experimental endpoint: CC50 at 48 h (µM)
Reply with just the number (in µM).

{"columns": ["Mol smiles", "CC50 at 48 h (µM)"],
 "data": [
  ["O=C(O)c1cc(Cl)ccc1C(=O)Nc1nccs1", 144]
]}

Value of CC50 at 48 h reported for the molecule `COc1cccc(C(=O)O)c1C(=O)Nc1nccs1` is 36.3

Value of CC50 at 48 h reported for the molecule `O=C(O)c1ccccc1C(=O)Nc1ccccn1` is 3820

Value of CC50 at 48 h reported for the molecule `O=C(O)c1ccccc1C(=O)Nc1nc2ccccc2s1` is 380

Reference source for all entries: ChEMBL document CHEMBL5584340
